Reported IC50 values for the following molecules.
molecular target: acetylcholinesterase (AChE) (Homo sapiens); experiment: biochemical; settings: in vitro, 25 °C, pH 8.0, triplicate; standards listed separately for series 1–13 and 14–26; read-out: AChE Inhibition IC50 ± SEM
Sequence (P22303 32-614, species assumed): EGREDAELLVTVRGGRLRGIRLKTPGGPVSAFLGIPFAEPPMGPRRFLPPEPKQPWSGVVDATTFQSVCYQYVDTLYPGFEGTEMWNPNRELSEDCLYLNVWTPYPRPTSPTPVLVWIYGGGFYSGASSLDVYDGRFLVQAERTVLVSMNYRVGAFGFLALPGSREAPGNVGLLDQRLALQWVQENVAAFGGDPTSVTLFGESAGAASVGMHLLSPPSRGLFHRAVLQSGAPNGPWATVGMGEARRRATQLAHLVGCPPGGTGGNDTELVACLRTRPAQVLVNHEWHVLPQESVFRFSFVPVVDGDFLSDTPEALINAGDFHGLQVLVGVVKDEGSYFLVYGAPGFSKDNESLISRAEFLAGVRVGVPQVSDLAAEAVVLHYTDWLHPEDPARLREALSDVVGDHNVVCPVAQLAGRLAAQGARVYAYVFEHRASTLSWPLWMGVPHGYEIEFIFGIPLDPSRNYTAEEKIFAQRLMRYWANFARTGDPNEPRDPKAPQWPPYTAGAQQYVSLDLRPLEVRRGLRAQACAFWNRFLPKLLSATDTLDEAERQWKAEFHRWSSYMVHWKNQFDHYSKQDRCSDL
Respond numerically; units are µM and should not be typed.

Consider the worked cases shown below.
COc1ccc2[nH]c(SC/C(=N/N=C/c3cc[nH]c3)c3ccc(-c4ccccc4)cc3)nc2c1 [Compound 3]    30.1
COc1ccc2[nH]c(SC/C(=N/N=C/c3cc[nH]c3)c3ccc(C)cc3)nc2c1 [Compound 1]    27.1
COc1ccc(/C(CSc2nc3cc(OC)ccc3[nH]2)=N\N=C\N2CCCCC2)cc1 [Compound 16]    28.1
Cc1ccc(/C(CSc2nc3ccccc3[nH]2)=N\N=C\c2cc[nH]c2)cc1 [Compound 7]    36
O=[N+]([O-])c1ccc2[nH]c(SC/C(=N/N=C/c3cc[nH]c3)c3ccc(-c4ccccc4)cc3)nc2c1 [Compound 11]    32.1
C(=N\N=C(\CSc1nc2ccccc2[nH]1)c1ccc(-c2ccccc2)cc1)/c1cc[nH]c1 [Compound 5]    34.2
Cc1ccc(/C(CSc2nc3cc([N+](=O)[O-])ccc3[nH]2)=N\N=C\c2cc[nH]c2)cc1 [Compound 13]    27.1
COc1ccc2[nH]c(SC/C(=N/N=C/N3CCCCC3)c3ccccc3OC)nc2c1 [Compound 15]    26
COc1ccc2[nH]c(SC/C(=N/N=C/N3CCCCC3)c3ccc(-c4ccccc4)cc3)nc2c1 [Compound 14]    42
COc1ccc2[nH]c(SC/C(=N/N=C/N3CCCCC3)c3cccc([N+](=O)[O-])c3)nc2c1 [Compound 17]    23.1

Tell me IC50 reported for COc1ccc(/C(CSc2nc3cc(OC)ccc3[nH]2)=N\N=C\c2cc[nH]c2)cc1 [Compound 2] 20

Tell me IC50 reported for COc1ccc(/C(CSc2nc3ccccc3[nH]2)=N\N=C\N2CCCCC2)cc1 [Compound 22] 34

Where do these numbers come from? They come from paper PMC11053857.
